This listing pairs binders with measured koff.
- Study system: T1, Cynomolgus CD3εδ Fc heterodimer (Cy CD3ε Fc / CD3δ Fc-HIS) (cynomolgus, UniProt Q95LI8 22-100)
- T1 chain 1: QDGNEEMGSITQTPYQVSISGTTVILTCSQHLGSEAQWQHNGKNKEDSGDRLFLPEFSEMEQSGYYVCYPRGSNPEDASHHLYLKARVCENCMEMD
- T1 chain 2: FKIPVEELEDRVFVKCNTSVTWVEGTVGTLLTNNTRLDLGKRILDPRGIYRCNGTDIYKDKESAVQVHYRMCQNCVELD
- Procedure summary: BLI (Octet), IgG on AHC sensor, pH 6.0
Field format: number, assumed s⁻¹, no unit text.

# annotated cases, reported koff shown
# Binder, Units symbol, koff
records = [
    ("LAD9956_P01_C03 (ADI-57440) (antibody, V domains shown, IgG; also called Ab171) VH: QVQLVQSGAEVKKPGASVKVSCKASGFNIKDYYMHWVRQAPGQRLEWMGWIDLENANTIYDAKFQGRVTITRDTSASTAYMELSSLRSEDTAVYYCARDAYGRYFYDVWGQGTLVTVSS VL: DIVMTQSPDSLAVSLGERATINCKSSQSLLNAHTHKNYLAWYQQKPGQPPKLLIYWASTRESGVPDRFSGSGSGTDFTLTISSLQAEDVAVYYCKQSYSRRTFGGGTKVEIK", "s⁻¹", 0.000913),
    ("SAD10319_P05_E04 (ADI-57411) (antibody, V domains shown, IgG; also called Ab139) VH: QVQLVQSGAEVKKPGASVKVSCKASGYTFTGYEMHWVRQAPGQRLEWMGWINPSTGNTVYSQKFQGRVTITRDTSASTAYMELSSLRSEDTAVYYCARDHYGHYFYDVWGQGTLVTVSS VL: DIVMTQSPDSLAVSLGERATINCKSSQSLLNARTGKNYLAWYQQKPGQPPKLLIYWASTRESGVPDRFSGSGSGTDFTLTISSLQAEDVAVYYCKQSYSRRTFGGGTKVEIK", "s⁻¹", 0.00373),
    ("SAD10319_P04_F12 (ADI-57343) (antibody, V domains shown, IgG; also called Ab44) VH: QVQLVQSGAEVKKPGASVKVSCKASGYTFNDYAMHWVRQAPGQRLDWMGWINPDTGNTNYSQKFQGRVTITRDTSASTAYMELSSLRSEDTAVYYCARDHYGRYFYDHWGQGTLVTVSS VL: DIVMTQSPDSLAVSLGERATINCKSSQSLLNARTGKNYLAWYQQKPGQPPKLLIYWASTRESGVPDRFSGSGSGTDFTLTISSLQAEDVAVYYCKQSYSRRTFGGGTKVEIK", "s⁻¹", 0.0162),
]

Query: koff; subject: SAD10320_P01_H01 (ADI-57347) (antibody, V domains shown, IgG; also called Ab52) VH: QVQLVQSGAEVKKPGASVKVSCKASGFNIKDYYMHWVRQAPGQRLDWMGWIDLENANTIYDAKFQGRVTITRDTSASTAYMELSSLRSEDTAVYYCARDAYGHNFYDVWGQGTLVTVSS VL: DIVMTQSPDSLAVSLGERATINCKSSQSLLNARTGKNYLAWYQQKPGQPPKLLIYWASTRESGVPDRFSGSGSGTDFTLTISSLQAEDVAVYYCKQSYHKRTFGGGTKVEIK
0.0207

Query: koff; subject: SAD10319_P02_A04 (ADI-57307) (antibody, V domains shown, IgG; also called Ab247) VH: QVQLVQSGAEVKKPGASVKVSCKASGYTFDSYSMHWVRQAPGQRLEWMGWINPDTGATDYSQKFQGRVTITRDTSASTAYMELSSLRSEDTAVYYCARDHYGHYFYDVWGQGTLVTVSS VL: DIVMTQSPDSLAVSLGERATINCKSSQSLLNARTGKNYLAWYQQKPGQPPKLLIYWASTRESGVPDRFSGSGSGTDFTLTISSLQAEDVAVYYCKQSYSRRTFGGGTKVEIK
0.0284

Values compiled from patent US20220380463A1.
